test: Partition coefficient (logP); type: physicochemical; settings: octanol/water
Observable: logP

Consider the worked cases shown below.
Cc1cccc(COc2ccc3c(c2)[C@@H](O)[C@@H](Cc2cccnc2)CO3)n1 :: 1.11
O[C@@H]1c2cc(OCc3ccc4ccccc4n3)ccc2OC[C@@H]1Cc1cccnc1 :: 2.04
O[C@@H]1c2cc(OCc3cccc(F)n3)ccc2OC[C@@H]1Cc1cccnc1 :: 0.84
O[C@@H]1c2cc(OCc3cccc(Cl)n3)ccc2OC[C@@H]1Cc1cccnc1 :: 1.27

a. Cc1nc(COc2ccc3c(c2)[C@@H](O)[C@@H](Cc2cccnc2)CO3)ccc1[N+](=O)[O-]
b. Cc1nc(COc2ccc3c(c2)[C@@H](O)[C@@H](Cc2cccnc2)CO3)ccc1Br
Which value of logP is numerically greater: that of a or that of b ? Write down the label attached to your selection.
b
(b: 2.09, a: 0.99)

* * *

test: Association constant (pKa) was determined; type: physicochemical
Observable: pKa

Solved cases below.
Cc1nc(COc2ccc3c(c2)[C@@H](O)[C@@H](Cc2cccnc2)CO3)ccc1Br :: 3.55
Cc1cccc(COc2ccc3c(c2)[C@@H](O)[C@@H](Cc2cccnc2)CO3)n1 :: 5.96
O[C@@H]1c2cc(OCc3ccccn3)ccc2OC[C@@H]1Cc1cccnc1 :: 5.25
c1ccc2ncccc2c1 [QUINOLINE] :: 4.81

P. O[C@@H]1c2cc(OCc3cccc(Cl)n3)ccc2OC[C@@H]1Cc1cccnc1
Q. O[C@@H]1c2cc(OCc3cccc(F)n3)ccc2OC[C@@H]1Cc1cccnc1
R. Cc1nc(COc2ccc3c(c2)[C@@H](O)[C@@H](Cc2cccnc2)CO3)ccc1[N+](=O)[O-]
S. O[C@@H]1c2cc(OCc3ccc4ccccc4n3)ccc2OC[C@@H]1Cc1cccnc1
Could you please order the items by pKa, going from the lowest number to the highest? In plain terms: list the labels in the order you were asked to.
Q, P, R, S
(Q: -0.44, P: 0.72, R: 1.52, S: 4.81)

* * *

biological target: Cysteinyl leukotriene receptor 1 (Cavia porcellus, UniProt Q2NNR5)
Sequence (Q2NNR5 whole entry): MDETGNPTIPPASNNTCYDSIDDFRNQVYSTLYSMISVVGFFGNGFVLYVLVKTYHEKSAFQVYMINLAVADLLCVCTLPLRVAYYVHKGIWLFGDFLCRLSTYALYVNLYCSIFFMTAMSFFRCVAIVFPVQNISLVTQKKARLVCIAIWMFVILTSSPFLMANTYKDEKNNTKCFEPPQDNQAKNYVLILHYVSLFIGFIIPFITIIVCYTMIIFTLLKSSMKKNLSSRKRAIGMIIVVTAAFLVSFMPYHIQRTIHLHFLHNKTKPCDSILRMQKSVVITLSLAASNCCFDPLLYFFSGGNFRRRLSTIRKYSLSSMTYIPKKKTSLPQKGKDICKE
Observable: Ki (nM)
Could you give me the number in nM? Just the number is fine.

Let me know recorded Ki for `O[C@@H]1c2cc(OCc3ccc4ccccc4n3)ccc2OC[C@@H]1Cc1cccnc1` , thanks.
1640
